Reported normalised response by item:
Test system: CAL-51
Experiment: normalised response (% of control), CellTiter-Glo; higher = more viable cells (100 = DMSO, 0 = benzethonium chloride kill control)
Settings: incubation time: 72 h
Kindly provide the numeric value in % only, without the unit symbol.

# example entries with known answers
[[record]]
compound = "Nc1nccc(-c2c(-c3ccc(F)cc3)ncn2C2CCCCC2)n1 (1000 nM)"
measured_property = "normalised response"
reported_measurement = 97

[[record]]
compound = "O=C(c1ccc(OCCN2CCCCC2)cc1)c1c(-c2ccc(O)cc2)sc2cc(O)ccc12 [Raloxifene] (10 nM)"
measured_property = "normalised response"
reported_measurement = 68.2

[[record]]
compound = "CCCC(CCC)C(=O)O [Valproic acid] (1000 nM)"
measured_property = "normalised response"
reported_measurement = 70.3

[[record]]
compound = "CN(c1ccccc1CNc1nc(Nc2ccc3c(c2)CC(=O)N3)ncc1C(F)(F)F)S(C)(=O)=O (1 nM)"
measured_property = "normalised response"
reported_measurement = 96.2


Kindly state the measured normalised response obtained for FC(F)c1nc2ccccc2n1-c1nc(N2CCOCC2)nc(N2CCOCC2)n1 [ZSTK474] (1 nM) with CAL-51. 81.5

Source: the supplement of paper PMC4862054
